Tested on: SN12C
Test: NCI tumour cell line growth inhibition, 48 h
Calls of active or inactive are those of the source. No stated cut-off is given here; in the data, active = GI50 up to about 1.1 µM and inactive = higher.
# valid calls are T (active), F (inactive); nothing else

Query: Would you mind telling me which call this test gave COc1ccc2c(c1)C(=O)CC(C(N)=O)C2 (stereo unspecified) ?
Result: F

Now take the following molecule into account.
Query: Please indicate how the test categorized CCCCCCC(=O)OC[n+]1ccc2c(C)c3[nH]c4ccccc4c3c(C)c2c1 .
Result: T

---

System: T47D
Assay: NCI tumour cell line growth inhibition, 48 h
Active and inactive are the calls of the source. Cut-off read from the data, not from the text of the source: active = GI50 up to about 1.1 µM and inactive = higher.
MEASURED PROPERTY: GI50

The molecule CC1=NN(c2nc(N)nc(/C(C#N)=C\C3COc4ccccc4C3=O)n2)C(C)(C)C1 (stereo not given) showed GI50 equal to 18.2 µM (inactive)

Record O=C(NN=C1NCCCCN1)Nc1ccc(Cl)cc1 , field GI50: > 100 µM (inactive)

Data point: CCCCCCC(=O)O[C@H]1CC[C@H]2[C@@H]3CCC4C/C(=N/NC(=O)c5cccc6c(=O)c7ccccc7[nH]c56)C=C(C)[C@]4(C)[C@H]3CC[C@]12C (stereo not given in full) ; GI50 = > 25 µM (inactive)

Consider COc1cc2c(cc1OC)C(=O)/C(=C/c1ccc(N(C)C)cc1)CC2 . Its measured GI50 is > 10 µM (inactive)

Consider COc1ccc2oc(=N)c(C(=O)Nc3ccccn3)cc2c1 . Its measured GI50 is 37 µM (inactive)

// field: GI50; key: C/C1=C\C=C(\C(C)C)CC/C(C(=O)O)=C\CC/C(C)=C/CC1 ; value = 34.4 µM (inactive)

Sure, the documented GI50 for Cc1cc(O)nc(NN2C(Cl)C(=O)C2c2ccc(Cl)cc2)n1 (stereo not given) is 16.6 µM (inactive)

Entry O=C1/C(=C/c2ccccc2)CCc2ccc([N+](=O)[O-])cc21 — recorded GI50 = > 51.6 µM (inactive)

Further cases:
Record CCC1(CC)C(=O)OC(=O)C1(CC)CC . Reported GI50: > 100 µM (inactive)

// GI50 lookup, molecule = Cc1cc(C)c(C(=O)c2nnc3ccccc3c2N)c(C)c1 , result: 16.6 µM (inactive)
